# system: IL33 and ST2 binding (Homo sapiens)
# condition: 100 µM
outcome_measure: inhibition (%)
Give bare numbers, in %.

- CC(C)N(CCN1CCN(C(=O)c2nc(-c3ccc(C(F)(F)F)cc3)oc2-c2ccccc2[N+](=O)[O-])CC1)C(C)C: -9
- CC(=O)N1CCN(CCNC(=O)c2nc(-c3cc(F)cc(F)c3)oc2-c2ccccc2[N+](=O)[O-])CC1: 33
- CCOC(=O)c1nc(-c2ccccc2C(F)(F)F)oc1-c1ccccc1: 84

In the following, a different compound is considered.
// inhibition lookup, compound = O=C(NCC1CCCO1)c1nc(-c2ccc(C(F)(F)F)cc2)oc1-c1ccccc1[N+](=O)[O-] (stereo not shown) , result: -1

----------
# system: IL33 and ST2 binding (Homo sapiens);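 note: plate ELISA with coated Flag-tagged human IL-33 and His-tagged human ST2, bound ST2 detected by anti-His HRP and TMB absorbance at 450 nm, 2 h compound incubation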
# Sequence (O95760 112-270 limits assumed): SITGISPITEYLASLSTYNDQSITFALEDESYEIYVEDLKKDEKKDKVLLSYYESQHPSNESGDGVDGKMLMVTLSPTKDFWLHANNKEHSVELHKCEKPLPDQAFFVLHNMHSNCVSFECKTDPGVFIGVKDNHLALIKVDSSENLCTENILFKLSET
# condition: 30 µM
Binary call on inhibition: Fulfilled from 20% upward, Not fulfilled beneath that.

Use the examples below as a reference point.
* COCCNC(=O)c1nc(-c2ccc(C(F)(F)F)cc2)oc1-c1ccccc1[N+](=O)[O-] [Compound 160] | Not fulfilled
* CCOC(=O)c1nc(-c2ccc(F)c(F)c2)oc1-c1ccccc1 [Compound 70] | Not fulfilled

**Q:** Say whether COc1cccc(-c2nc(C(=O)NCCN(C)C)c(-c3ccccc3)o2)c1 [Compound 208] shows inhibition of 20% or more.
**A:** Not fulfilled

**Q:** Say whether CCNC(=O)c1nc(-c2ccc(C(F)(F)F)cc2)oc1-c1cccc(OC)c1 [Compound 298] shows inhibition of 20% or more.
**A:** Fulfilled

**Q:** Say whether CN1CCN(CCNC(=O)c2nc(-c3ccccc3C(F)(F)F)oc2-c2ccccc2[N+](=O)[O-])CC1 [Compound 120] shows inhibition of 20% or more.
**A:** Not fulfilled

**Q:** Say whether CCOC(=O)c1nc(-c2ccc(Cl)cc2)oc1-c1ccccc1[N+](=O)[O-] [Compound 78] shows inhibition of 20% or more.
**A:** Fulfilled

**Q:** Say whether CCOC(=O)c1nc(-c2ccc(OC(F)(F)F)cc2)oc1-c1ccccc1 [Compound 58] shows inhibition of 20% or more.
**A:** Fulfilled

**Q:** Say whether CCOC(=O)c1nc(-c2ccc(C(F)(F)F)cc2)oc1-c1cccc(NC(C)=O)c1 [Compound 106] shows inhibition of 20% or more.
**A:** Not fulfilled

**Q:** Say whether COc1ccc(-c2nc(C(=O)N3CCN(CCN(C)C)CC3)c(-c3ccc([N+](=O)[O-])cc3)o2)cc1 [Compound 218] shows inhibition of 20% or more.
**A:** Fulfilled

**Q:** Say whether CN(C)CCN1CCN(C(=O)c2nc(-c3ccc(C(F)(F)F)cc3)oc2-c2ccccc2)CC1 [Compound 129] shows inhibition of 20% or more.
**A:** Fulfilled

**Q:** Say whether CN(C)CCN1CCN(C(=O)c2nc(-c3ccc(F)cc3)oc2-c2ccccc2[N+](=O)[O-])CC1 [Compound 228] shows inhibition of 20% or more.
**A:** Fulfilled

**Q:** Say whether COCCNC(=O)c1nc(-c2ccc(C(F)(F)F)cc2)oc1-c1cccc(SC)c1 [Compound 293] shows inhibition of 20% or more.
**A:** Fulfilled

**Q:** Say whether CN1CCN(CCNC(=O)c2nc(-c3cccc(C(F)(F)F)c3)oc2-c2ccccc2[N+](=O)[O-])CC1 [Compound 124] shows inhibition of 20% or more.
**A:** Fulfilled
